- target_entity: human Lck enzyme (Homo sapiens)
- Construct: purchased Carna Biosciences, Inc. 08-170
- Sequence (P06239 whole entry): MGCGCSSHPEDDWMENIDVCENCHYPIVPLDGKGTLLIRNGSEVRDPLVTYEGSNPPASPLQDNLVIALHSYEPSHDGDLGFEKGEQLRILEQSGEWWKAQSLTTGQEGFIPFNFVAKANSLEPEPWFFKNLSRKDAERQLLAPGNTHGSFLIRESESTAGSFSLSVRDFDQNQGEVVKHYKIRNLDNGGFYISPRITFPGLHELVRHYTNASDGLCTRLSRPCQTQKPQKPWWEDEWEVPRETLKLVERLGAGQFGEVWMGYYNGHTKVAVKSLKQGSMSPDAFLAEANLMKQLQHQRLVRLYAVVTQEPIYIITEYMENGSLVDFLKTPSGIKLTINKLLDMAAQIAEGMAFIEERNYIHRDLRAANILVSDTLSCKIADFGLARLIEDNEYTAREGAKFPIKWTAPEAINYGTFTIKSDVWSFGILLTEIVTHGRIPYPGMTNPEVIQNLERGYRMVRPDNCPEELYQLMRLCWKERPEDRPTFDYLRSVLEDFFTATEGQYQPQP
- protocol_text: Lck enzyme inhibitory activity (time-resolved fluorometry, biotinylated peptide phosphorylation)
- Type: biochemical
- assay_context: biotinylated peptide phosphorylation, read-out: LCK_IC50
Catalogue of compounds with associated IC50
Entry rule: numbers only, all in nM.

Reference set (2 entries):
Cc1cc(Oc2ccccc2F)ncc1-n1ncc(C(=O)c2cc3cc(OCC(F)F)c(C4CCN(S(=O)(=O)C5CC5)CC4)cc3[nH]2)c1N [Example 4-17-022]	8
Cc1cc2cc(C(=O)c3cnn(-c4cnc(Oc5ccccc5F)cc4C)c3N)[nH]c2cc1NS(=O)(=O)c1cccc(F)c1 [Example 5-1-500]	200

--- query ---
IN: Consider the compound Cc1cc(Oc2ccccc2F)ccc1-n1ncc(C(=O)c2cc3cc(OC(F)F)c(N4CC5(CCCC5)NS4(=O)=O)cc3[nH]2)c1N [Example 5-1-423] . State its measured IC50.
OUT: 61
